Parameter: remaining at 3 h, 1 µM. Scope: all listed entries.
# test_method_notes: Metabolic stability of the compound in rat plasma assessed as compound remaining at 1 uM after 3 hrs
# Format: ADME, cell-free
# assay_context: read-out: Stability
quantity_measured: remaining at 3 h, 1 µM (%)

> print(dat)
                                  structure       quantity.measured  numeric.result
1  CS(=O)(=O)c1ccc(NC(=O)c2cc(C#N)c(Sc3c(Cl)cncc3Cl)s2)cc1  remaining at 3 h, 1 µM              97
2  CN1CCC(NC(=O)c2cc([N+](=O)[O-])c(Sc3c(Cl)cccc3Cl)s2)CC1  remaining at 3 h, 1 µM              93
3  CS(=O)(=O)c1ccc(NC(=O)c2cc([N+](=O)[O-])c(Sc3c(Cl)cncc3Cl)s2)cc1  remaining at 3 h, 1 µM               0
4  CN(C)CCCOc1ccc(NC(=O)c2cc(C#N)c(Sc3c(Cl)cncc3Cl)s2)cc1  remaining at 3 h, 1 µM              90
5  CN(C)CCCOc1ccc(NC(=O)c2cc([N+](=O)[O-])c(Sc3c(Cl)cncc3Cl)s2)cc1  remaining at 3 h, 1 µM              21
6  CN1CCC(NC(=O)c2cc([N+](=O)[O-])c(Sc3c(Cl)cncc3Cl)s2)CC1  remaining at 3 h, 1 µM               0
7  COc1ccc(NC(=O)c2cc([N+](=O)[O-])c(Sc3c(Cl)cncc3Cl)s2)cc1  remaining at 3 h, 1 µM              36
